system-tested: AlinCSP1-3
experiment: Fluorescence competitive binding assay, statements for the three CSPs together
condition-parameters: displacement of 1-NPN, all three CSPs
assay-endpoint: IC50

Q. Tell us which IC50 value is on record for CCCCCCCCCCCCCCCC(=O)O [hexadecanoic acid]
A. > 50 µM

* * *

system-tested: AlinCSP2 (Adelphocoris lineolatus, UniProt E7BLG5)
Sequence (E7BLG5 entry or part of it): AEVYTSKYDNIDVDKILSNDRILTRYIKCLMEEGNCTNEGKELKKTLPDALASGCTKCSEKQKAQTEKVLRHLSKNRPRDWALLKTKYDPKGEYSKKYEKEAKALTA
experiment: biochemical
Format: binding
condition-parameters: KD (µM) AlinCSP2, 1-NPN and protein at 2 µM, 50 mM Tris-HCl pH 7.4; KD calculated from IC50; mean of three measurements
Sorting guide: entries reporting Kd beneath 20 µM go in the 1.0 pile, the rest go in the 0.0 pile.

Q. Is the reported Kd for COC(=O)Cc1ccccc1 [Methyl phenylacetate] strictly below 20 µM?
A. 0.0

Q. Is the reported Kd for c1ccc2[nH]ccc2c1 strictly below 20 µM?
A. 0.0

Q. Is the reported Kd for CC/C=C\CCO [(Z)-3-Hexen-1-ol] strictly below 20 µM?
A. 1.0

Q. Is the reported Kd for CCCCOC(C)=O [Butyl acetate] strictly below 20 µM?
A. 0.0

Q. Is the reported Kd for C=CC(C)(O)CCC=C(C)C (stereo not shown) strictly below 20 µM?
A. 0.0

Q. Is the reported Kd for COC(=O)c1ccccc1O [Methyl salicylate] strictly below 20 µM?
A. 1.0

Q. Is the reported Kd for CC1(C)[C@@H]2CC[C@@]1(C)[C@H](O)C2 (racemic) strictly below 20 µM?
A. 0.0

Q. Is the reported Kd for C=C1CCC2CC1C2(C)C (stereo not shown) strictly below 20 µM?
A. 1.0

Q. Is the reported Kd for C=CC(=O)OCCCC [Butyl acrylate] strictly below 20 µM?
A. 0.0

Q. Is the reported Kd for CCC/C=C/C=O [(E)-2-Hexen-1-al] strictly below 20 µM?
A. 1.0

Q. Is the reported Kd for CCOC(=O)Cc1ccccc1 [Ethyl phenylacetate] strictly below 20 µM?
A. 0.0

Q. Is the reported Kd for O=Cc1ccccc1 strictly below 20 µM?
A. 0.0

* * *

system-tested: AlinCSP3 (Adelphocoris lineolatus)
Sequence (E7BLG4 entry or part of it): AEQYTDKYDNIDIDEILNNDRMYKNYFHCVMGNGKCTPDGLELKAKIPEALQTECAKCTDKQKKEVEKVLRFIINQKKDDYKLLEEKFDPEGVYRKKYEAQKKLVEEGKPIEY
experiment: biochemical
Format: binding
condition-parameters: u.d. = KD not calculated because IC50>50 µM; read-out: KD (µM) AlinCSP3, given as u.d.
assay-endpoint: Kd

Q. Report value only: Kd, AlinCSP3 (Adelphocoris lineolatus), CCCCCCCCCCC [Undecane]
A. > 50 µM

Q. Report value only: Kd, AlinCSP3 (Adelphocoris lineolatus), Cc1cccc(C(=O)O)c1C [2,3-Dimethylbenzoic acid]
A. > 50 µM

Q. Report value only: Kd, AlinCSP3 (Adelphocoris lineolatus), CCCCCCCCCCCC [Dodecane]
A. > 50 µM

Q. Report value only: Kd, AlinCSP3 (Adelphocoris lineolatus), CCCCCCCCC [Nonane]
A. > 50 µM

Q. Report value only: Kd, AlinCSP3 (Adelphocoris lineolatus), CCCCC(CC)CO (stereo not shown) [2-Ethyl-1-hexanol]
A. > 50 µM

Q. Report value only: Kd, AlinCSP3 (Adelphocoris lineolatus), CCCCCCCCCC(C)O (stereo not shown) [2-Undecanol]
A. > 50 µM

Q. Report value only: Kd, AlinCSP3 (Adelphocoris lineolatus), CCCCCCCCCCCCCCCC(=O)O [hexadecanoic acid]
A. > 50 µM

Q. Report value only: Kd, AlinCSP3 (Adelphocoris lineolatus), CCCCCCCC(C)=O [2-Nonanone]
A. > 50 µM

Q. Report value only: Kd, AlinCSP3 (Adelphocoris lineolatus), CCCCCCOC(=O)CCC [Hexyl butyrate]
A. > 50 µM

Q. Report value only: Kd, AlinCSP3 (Adelphocoris lineolatus), Cc1ccc(C=O)cc1C [3,4-Dimethyl-benzaldehe, 3,4-Dimethyl-benzaldehyde]
A. > 50 µM

Q. Report value only: Kd, AlinCSP3 (Adelphocoris lineolatus), CCCCCCC(C)O (stereo not shown) [2-Octanol]
A. > 50 µM

Q. Report value only: Kd, AlinCSP3 (Adelphocoris lineolatus), CCCCOC(=O)CCC [Butyl butyrate]
A. > 50 µM

Q. Report value only: Kd, AlinCSP3 (Adelphocoris lineolatus), CCCCCCCCCCCCCCO [Tetradecanol]
A. > 50 µM

* * *

system-tested: AlinCSP3 (Adelphocoris lineolatus)
experiment: biochemical
Assay type: binding
condition-parameters: 1-NPN and protein at 2 µM, 50 mM Tris-HCl pH 7.4; KD calculated from IC50; mean of three measurements; read-out: KD (µM) AlinCSP3
assay-endpoint: Kd
# number then unit; no other words

Q. Report value only: Kd, AlinCSP3 (Adelphocoris lineolatus), C/C1=C\CC/C(C)=C/CC(C)(C)/C=C/C1
A. 8.94 µM

Q. Report value only: Kd, AlinCSP3 (Adelphocoris lineolatus), CCCCCCCCCCCCCC
A. 46.2 µM

Q. Report value only: Kd, AlinCSP3 (Adelphocoris lineolatus), CCCCCCOC(=O)CCCCC [Hexyl hexanoate]
A. 43.8 µM

Q. Report value only: Kd, AlinCSP3 (Adelphocoris lineolatus), CCCCC
A. 35.6 µM

Q. Report value only: Kd, AlinCSP3 (Adelphocoris lineolatus), CCCCCCCCCC
A. 47.2 µM

Q. Report value only: Kd, AlinCSP3 (Adelphocoris lineolatus), CCCCC/C=C\CCO [(Z)-3-Nonen-1-ol]
A. 25.5 µM

Q. Report value only: Kd, AlinCSP3 (Adelphocoris lineolatus), CCCCC=O
A. 11.2 µM

Q. Report value only: Kd, AlinCSP3 (Adelphocoris lineolatus), CCCCCCCC
A. 45.4 µM

Q. Report value only: Kd, AlinCSP3 (Adelphocoris lineolatus), CCCCCCC(C)=O
A. 39.5 µM

Q. Report value only: Kd, AlinCSP3 (Adelphocoris lineolatus), CCCCC(C)O (stereo not drawn)
A. 37.1 µM

Q. Report value only: Kd, AlinCSP3 (Adelphocoris lineolatus), CCCCCC(C)=O
A. 41.2 µM

Q. Report value only: Kd, AlinCSP3 (Adelphocoris lineolatus), CCCCCCCCCOC(C)=O [Nonyl acetate]
A. 46.5 µM

Q. Report value only: Kd, AlinCSP3 (Adelphocoris lineolatus), CC(C)=CCCC(C)CCO (stereo not drawn) [(-)-β-Citronellol]
A. 43.5 µM

Q. Report value only: Kd, AlinCSP3 (Adelphocoris lineolatus), C=C/C(C)=C\CC=C(C)C [(Z)−ocimene]
A. 22.2 µM

Q. Report value only: Kd, AlinCSP3 (Adelphocoris lineolatus), CCCCCCCCCC=O
A. 42.3 µM

Q. Report value only: Kd, AlinCSP3 (Adelphocoris lineolatus), C=CC(=C)CCC=C(C)C
A. 10.7 µM

Q. Report value only: Kd, AlinCSP3 (Adelphocoris lineolatus), C=CC(C)(O)CCC=C(C)CCC=C(C)C (mixture of isomers)
A. 22.4 µM

Q. Report value only: Kd, AlinCSP3 (Adelphocoris lineolatus), CC/C=C\CCOC(C)=O [(Z)-3-Hexenyl acetate]
A. 12.2 µM

* * *

system-tested: AlinCSP2 (Adelphocoris lineolatus, UniProt E7BLG5)
experiment: biochemical
Assay type: binding
condition-parameters: 1-NPN and protein at 2 µM, 50 mM Tris-HCl pH 7.4; KD calculated from IC50; mean of three measurements; read-out: KD (µM) AlinCSP2
Method: Fluorescence binding assays were performed on an F-380 fluorescence spectrophotometer (Tianjin, China) in a 1 cm light path quartz cuvette. The slit width used for excitation and emission was both 10 nm. […] 1-NPN was excited at 337 nm and emission spectra were recorded between 390 nm and 530 nm. […] For determining binding constants, the intensity values corresponding to the maximum fluorescence emission were plotted against free ligand concentration. […]
Assign Kd to each entry below.

Q. Tell us which Kd value is on record for CCCCC
A. 39.5 µM

Q. Tell us which Kd value is on record for CCCCCCCCCC
A. 46.4 µM

Q. Tell us which Kd value is on record for CCCCCCCC(C)=O
A. 42.4 µM

Q. Tell us which Kd value is on record for CCCCC=O
A. 13.4 µM

Q. Tell us which Kd value is on record for CCCCCCCCCCC
A. 39.6 µM

Q. Tell us which Kd value is on record for CCCCCCCCCCCCCCO
A. 35.8 µM

Q. Tell us which Kd value is on record for CC/C=C\CCOC(C)=O [(Z)-3-Hexenyl acetate]
A. 15.8 µM

Q. Tell us which Kd value is on record for CCCCC/C=C\CCO [(Z)-3-Nonen-1-ol]
A. 26.4 µM

Q. Tell us which Kd value is on record for CCCCCCC(C)O (stereo not drawn)
A. 39.5 µM

Q. Tell us which Kd value is on record for CCCCCCCCCC=O
A. 45.9 µM

Q. Tell us which Kd value is on record for CCCCCCCC
A. 44.4 µM

Q. Tell us which Kd value is on record for C=CC(=C)CCC=C(C)C
A. 13 µM

Q. Tell us which Kd value is on record for C=C/C(C)=C\CC=C(C)C [(Z)−ocimene]
A. 25.1 µM

Q. Tell us which Kd value is on record for CCCCCCCCCOC(C)=O [Nonyl acetate]
A. 29.2 µM

Q. Tell us which Kd value is on record for C=CC(C)(O)CCC=C(C)CCC=C(C)C (mixture of isomers)
A. 24.4 µM
